Every entry's value here was drawn from ChEMBL document CHEMBL3596134.

Assay: Oral bioavailability in rat at 10 mg/kg
Type: ADME, organism-based
Settings: in vivo
metric: bioavailability (%)
One number for each entry, in %.

Query: What measured bioavailability goes with O=C(O)CCCc1cn(CC(=O)O)c2c(/C=C/c3ccc(OCCCCOc4ccccc4)cc3)cccc12 ?
Reply: 66

###

Experiment: Volume of distribution at steady state in guinea pig at 1 mg/kg, iv and 10 mg/kg, po
Type: ADME, organism-based, Cavia porcellus
Settings: in vivo, read-out: Vdss
metric: Vd (L/kg)
Numbers only, in L/kg.

Query: What measured Vd goes with Cc1c(Cl)cccc1CCCCOc1ccc(/C=C/c2cccc3c(CCCC(=O)O)c(C)n(CC(=O)O)c23)cc1 ?
Reply: 0.23
